Origin of measurements: paper PMC4532391

# reported pIC50; entries follow
# TARGET: αMI-domain (Homo sapiens, UniProt P11215)
# Sequence (P11215 139-331): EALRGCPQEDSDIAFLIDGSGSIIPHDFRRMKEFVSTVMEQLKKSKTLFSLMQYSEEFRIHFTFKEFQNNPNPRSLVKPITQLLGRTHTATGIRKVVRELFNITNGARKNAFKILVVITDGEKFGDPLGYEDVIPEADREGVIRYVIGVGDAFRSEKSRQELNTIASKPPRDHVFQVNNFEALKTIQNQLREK
# Format: binding
pIC50: −log10 of the molar value. No end group written: not given here.
VALUE KIND: pIC50

[[record]]
substance = "TMKIIPFNRLTIG [P2-C]"
recorded_result = 4.52

[[record]]
substance = "GRLPMPW [GRLPMPW]"
recorded_result = 4.44

[[record]]
substance = "SVNKYRGTAGNA [SVNKYRGTAGNA]"
recorded_result = 4.03

[[record]]
substance = "LQLRFPRFV [LQLRFPRFV]"
recorded_result = 4.98

[[record]]
substance = "RKLRSLWRR [RKLRSLWRR]"
recorded_result = 5.60

[[record]]
substance = "QVLRIRKRA [QVLRIRKRA]"
recorded_result = 5.08

[[record]]
substance = "ARLPIWF [ARLPIWF]"
recorded_result = 4.77


----------
# TARGET: αMI-domain (Homo sapiens, UniProt P11215)
VALUE KIND: IC50 (µM)

[[record]]
molecule_smiles = "CC(C)C[C@H](NC(=O)[C@H](CC(C)C)NC(=O)[C@H](CCCNC(=N)N)NC(=O)[C@@H](N)CC(N)=O)C(=O)N[C@@H](CC(C)C)C(=O)N[C@H](C(=O)NCC(=O)O)[C@@H](C)O"
target = "αMI-domain (Homo sapiens, UniProt P11215)"
value_kind = "IC50"
recorded_result = 110

